Catalogue of compounds with associated inhibition at 33 µM
Test system: Human Basophils
Assay: Histamine Release from Human Basophils (HHB)
Assay type: cell-based
Conditions: Homo sapiens; 33 μM cpd.; antigen challenge; read-out: HHB (antigen), percent inhibition of histamine release
Source text: Histamine Release from Human Basophils (HHB) Procedure for Quantitating Active Histamine Release, and its Inhibition by Drugs, from Basophils of Human Blood Using an Automated Fluorometric Histamine Assay […] Blood from allergic donors is obtained from volunteers through the Community Research Clinic. […] By comparing the histamine release of drug-treated cells and the challenge agent controls, drug inhibition of mediator (histamine) release can be evaluated. […]

# structure.notation, units.text, inhibition at 33 µM
rows = [
    ("O=C(O)c1ccccc1-c1ccccc1C(=O)Nc1ccc(Cc2ccc(Cl)c(Cl)c2)cc1", "%", 87),
    ("O=C(O)c1ccccc1-c1ccccc1C(=O)Nc1ccc(CCCCCc2ccccc2)cc1", "%", 91),
    ("O=C(O)c1ccccc1-c1ccccc1C(=O)Nc1ccccc1CCc1ccc(Cl)c(Cl)c1", "%", -42),
    ("O=C(O)c1ccccc1-c1ccccc1C(=O)Nc1ccc(CCc2ccc(C(F)(F)F)cc2)cc1", "%", 62),
    ("O=C(O)c1ccccc1-c1ccccc1C(=O)Nc1ccc(CCCCc2ccccc2)cc1", "%", 59),
    ("CN(C(=O)c1ccccc1-c1ccccc1C(=O)O)c1ccc(CCc2ccc(Cl)cc2)cc1", "%", 67),
    ("O=C(O)c1ccccc1-c1ccccc1C(=O)Nc1ccc(CCCc2ccc(Cl)c(Cl)c2)cc1", "%", 72),
    ("O=C(O)c1ccccc1-c1ccccc1C(=O)Nc1ccc(OCCCc2ccccc2)cc1", "%", 12),
]
